assay: in vivo; conditions: albino, rabbit, vitreous humor, 928 ng
metric name: clearance (mL/min)
Only the number, expressed in mL/min, is required.

What does the record list as clearance for `Brc1c(NC2=NCCN2)ccc2nccnc12` ? 0.00812

----------
test: in vivo; conditions: albino, rabbit, vitreous humor, 928 ng
metric name: half-life (h)
Only the number, expressed in h, is required.

What does the record list as half-life for `Brc1c(NC2=NCCN2)ccc2nccnc12` ? 1.45

----------
assay: in vivo; details: rabbit, lens, other: intravitreal implant, 200 micrograms
metric name: concentration at 91 day

What does the record list as concentration at 91 day for `Brc1c(NC2=NCCN2)ccc2nccnc12` ? 50.1 ng/g

----------
assay: in vivo; details: rabbit, retina, other: intravitreal implant, 200 micrograms
metric name: concentration at 8 day

What does the record list as concentration at 8 day for `Brc1c(NC2=NCCN2)ccc2nccnc12` ? 3630 ng/g

----------
experiment: in vivo; settings: albino, rabbit, vitreous humor, other: intravitreal injection, 928 ng
metric name: concentration at 10 h (ng/mL)
Only the number, expressed in ng/mL, is required.

What does the record list as concentration at 10 h for `Brc1c(NC2=NCCN2)ccc2nccnc12` ? 9.68

----------
assay: in vivo; details: rabbit, retina, other: intravitreal implant, 200 micrograms
metric name: concentration at 136 day (ng/g)
Only the number, expressed in ng/g, is required.

What does the record list as concentration at 136 day for Brc1c(NC2=NCCN2)ccc2nccnc12 [brimonidine] ? 22.6

----------
assay: in vivo; conditions: rabbit, iris-ciliary body, other: intravitreal implant, 200 micrograms
metric name: concentration at 136 day (ng/g)
Only the number, expressed in ng/g, is required.

What does the record list as concentration at 136 day for Brc1c(NC2=NCCN2)ccc2nccnc12 [brimonidine] ? 107

----------
assay: in vivo; details: rabbit, vitreous humor, other: intravitreal implant, 200 micrograms
metric name: concentration at 91 day (ng/mL)
Only the number, expressed in ng/mL, is required.

What does the record list as concentration at 91 day for Brc1c(NC2=NCCN2)ccc2nccnc12 [brimonidine] ? 59.3

----------
assay: in vivo; conditions: rabbit, vitreous humor, other: intravitreal implant, 200 micrograms
metric name: concentration at 8 day (ng/mL)
Only the number, expressed in ng/mL, is required.

What does the record list as concentration at 8 day for Brc1c(NC2=NCCN2)ccc2nccnc12 [brimonidine] ? 47.2

----------
assay: in vivo; details: rabbit, retina, other: intravitreal implant, 200 micrograms
metric name: concentration at 31 day (ng/g)
Only the number, expressed in ng/g, is required.

What does the record list as concentration at 31 day for `Brc1c(NC2=NCCN2)ccc2nccnc12` ? 35.3

----------
test: in vivo; conditions: rabbit, lens, other: intravitreal implant, 200 micrograms
metric name: concentration at 31 day (ng/g)
Only the number, expressed in ng/g, is required.

What does the record list as concentration at 31 day for `Brc1c(NC2=NCCN2)ccc2nccnc12` ? 17

----------
test: in vivo; settings: rabbit, iris-ciliary body, other: intravitreal implant, 200 micrograms
metric name: concentration at 31 day (ng/g)
Only the number, expressed in ng/g, is required.

What does the record list as concentration at 31 day for `Brc1c(NC2=NCCN2)ccc2nccnc12` ? 25.9
